System: SF-539 CNS
Assay: NCI tumour cell line growth inhibition, 48 h
observationType: TGI

Record excerpt, results attached:
>>> reportedresult("COC1(OC)CC2C(=O)N(Cc3ccccc3)C1CC2S(=O)(=O)c1ccccc1 (stereo unspecified)")
"> 100 µM"
>>> reportedresult("O=C1/C(=C/c2ccc([N+](=O)[O-])s2)Oc2ccccc21")
"2.1 µM"
>>> reportedresult("CN(/N=C/c1ccnc2ccccc12)c1ccc([N+](=O)[O-])cc1[N+](=O)[O-]")
"> 100 µM"
>>> reportedresult("Cc1ncc(CO)c(CN)c1O")
"> 100 µM"
>>> reportedresult("CS(=O)(=O)c1[nH]nc2[nH]c(=O)[nH]c(=O)c12")
"> 10 µM"
>>> reportedresult("COc1ccc(-n2c3c(c4cc(O)ccc42)C(=O)c2ccccc2C3=O)cc1")
"11.5 µM"

QUERY: Report TGI for COc1ccc(OC)c(NC(=O)C(=O)Nn2c(=S)[nH]c3ccccc3c2=O)c1 please.
RESULT: > 100 µM

QUERY: Also CCOC(=O)C1=C(NC(C)(C)C)OCC1=O , if possible.
RESULT: > 100 µM

QUERY: Also Cc1ccc(S(=O)(=O)[N-]C2C(=O)c3ccccc3C(=O)C2[n+]2cccc(C(N)=O)c2)cc1 (stereo unspecified) , if possible.
RESULT: > 100 µM

QUERY: Also O=C(Nc1cccc2cccnc12)c1ccc(N2C(=O)[C@@H]3[C@H](C2=O)[C@@H]2C=C[C@H]3C2)cc1 , if possible.
RESULT: > 100 µM

QUERY: Also Cc1nccc2c1cnc1ccnn12 , if possible.
RESULT: > 100 µM

###

System: U251 CNS
Experiment: NCI tumour cell line growth inhibition, 48 h
observationType: TGI

>>> reportedresult("CS(=O)(=O)OCCN(CCOS(C)(=O)=O)c1ccc(C=Nc2ccc3oc(=O)ccc3c2)cc1")
"41.9 µM"

QUERY: Report TGI for CCCCSC1=N/C(=C\c2ccco2)C(=O)N1 please.
RESULT: > 100 µM

QUERY: Also CC(=O)O[C@H]1C(=O)[C@@]2(C)[C@H]([C@H](OC(=O)c3ccc([N+](=O)[O-])cc3)[C@]3(O)C[C@H](OC(=O)[C@H](O)[C@@H](NC(=O)c4ccccc4)c4ccccc4)C(C)=C1C3(C)C)[C@]1(OC(C)=O)CO[C@@H]1C[C@@H]2O , if possible.
RESULT: > 25 µM

QUERY: Also Oc1ccc(/C=N/Nc2nc3ccccc3s2)c(O)c1 , if possible.
RESULT: > 100 µM

###

Measured TGI by item
Tested on: MDA-N
Assay: NCI tumour cell line growth inhibition, 48 h

Record excerpt, results attached:
>>> reportedresult("C/C(=N\\NC(=O)/C(C#N)=C\\c1ccc(N(CCC#N)CCC#N)cc1)c1ccccc1")
"> 10 µM"
>>> reportedresult("Cn1cnc([N+](=O)[O-])c1SCC(=O)O")
"> 100 µM"
>>> reportedresult("CC(C)C[C@H](NC(=O)CCc1ccccc1)B(O)O")
"7.27 µM"

Would you kindly look at the next entry?
QUERY: Report TGI for CC(=O)O[C@H]1C(=O)[C@@]2(C)[C@H]([C@H](OC(=O)c3ccc([N+](=O)[O-])cc3)[C@]3(O)C[C@H](OC(=O)[C@H](O)[C@@H](NC(=O)c4ccccc4)c4ccccc4)C(C)=C1C3(C)C)[C@]1(OC(C)=O)CO[C@@H]1C[C@@H]2O please.
RESULT: > 25 µM
